# pKi values compiled below
Subject of test: Histamine H3 receptor (Homo sapiens)
Sequence (Q9Y5N1 whole entry): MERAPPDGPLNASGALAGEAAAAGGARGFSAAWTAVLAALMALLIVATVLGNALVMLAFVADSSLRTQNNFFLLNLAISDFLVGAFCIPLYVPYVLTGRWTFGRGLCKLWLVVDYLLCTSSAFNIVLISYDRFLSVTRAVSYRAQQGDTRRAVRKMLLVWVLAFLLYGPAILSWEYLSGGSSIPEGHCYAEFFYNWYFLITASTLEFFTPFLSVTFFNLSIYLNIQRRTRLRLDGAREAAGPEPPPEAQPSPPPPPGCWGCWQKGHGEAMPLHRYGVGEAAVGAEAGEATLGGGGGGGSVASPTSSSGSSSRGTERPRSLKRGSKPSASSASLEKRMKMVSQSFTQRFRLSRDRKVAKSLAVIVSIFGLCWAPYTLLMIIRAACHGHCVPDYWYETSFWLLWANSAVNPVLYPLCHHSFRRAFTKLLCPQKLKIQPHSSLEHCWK
Method summary: Displacement of [3H]N-alpha-methylhistamine from recombinant human H3 receptor expressed in HEK293T cells measured after 90 mins by liquid scintillation counting method
A value of pKi is the negative decimal logarithm of a concentration given in moles per litre.

# Smiles code, Value observed
data = [
    ("c1ccc(CNc2ccnc(Nc3ccc(OCCN4CCCCC4)cc3)n2)cc1", 8.35),
]

Prompt line: State its pKi on Histamine H3 receptor (Homo sapiens): Cc1ccc(C2(O)CCN(c3nc(C)nc4ccsc34)CC2)nc1
Response line: 8.22

---

Subject of test: Cholecystokinin receptor type A (Homo sapiens)
Sequence (P32238 whole entry): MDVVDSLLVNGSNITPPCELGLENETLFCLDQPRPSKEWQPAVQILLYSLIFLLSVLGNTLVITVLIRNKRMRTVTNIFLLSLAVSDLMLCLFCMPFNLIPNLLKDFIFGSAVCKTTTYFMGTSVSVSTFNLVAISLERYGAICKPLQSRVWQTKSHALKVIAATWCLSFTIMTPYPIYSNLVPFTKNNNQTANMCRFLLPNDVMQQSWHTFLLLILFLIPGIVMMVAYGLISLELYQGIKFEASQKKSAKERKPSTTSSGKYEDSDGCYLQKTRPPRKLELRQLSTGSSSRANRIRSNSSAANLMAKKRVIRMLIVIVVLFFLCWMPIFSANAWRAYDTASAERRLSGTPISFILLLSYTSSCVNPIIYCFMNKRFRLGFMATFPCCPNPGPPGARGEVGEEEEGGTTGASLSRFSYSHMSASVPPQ
Method summary: Displacement of [I125]bolton hunter-CCK-8S from recombinant human CCK1 receptor expressed in stable CHO cells measured after 1 to 2 hrs by microscintillation counting method
pIC50: −log10 of the molar value.
Property: pIC50

Prompt line: # input molecule: COc1ccc(-c2nc(NC(=O)c3cc4ccccc4n3CC(=O)O)ncc2CC2CCCCC2)c(OC)c1 ; wanted: its pIC50
Response line: > 7.30

---

Method summary: Cmax in C57BL/6J mouse brain assessed as 4-(2-Amino-8-methyl-5,6,7,8-tetrahydroquinazolin-4-yl)phenol level at 20 mg/kg, po by LC-MS/MS analysis
Type: ADME, organism-based
Set-up: dose 20 mg/kg, route oral
Test conditions: in vivo
Property: Cmax (ng/g)
Please give a number only; it is taken to be in ng/g.

Prompt line: # input compound: COc1ccc(-c2nc(N)nc3c2CCCC3C)cc1 (racemic) ; wanted: its Cmax
Response line: 101

---

Method summary: Apparent volume of distribution in C57BL/6J mouse serum at 20 mg/kg, po by LC-MS/MS analysis
Type: ADME, organism-based
Property: Vd/F
Please answer using a numeric value trailed by its unit.

Prompt line: # input molecule: COc1ccc(-c2nc(N)nc3c2CCCC3C)cc1 (racemic) ; wanted: its Vd/F
Response line: 28.5 L/kg

---

Method summary: Tmax in C57BL/6J mouse brain at 20 mg/kg, po by LC-MS/MS analysis
Assay type: ADME, organism-based
Property: Tmax

Prompt line: # input molecule: COc1ccc(-c2nc(N)nc3c2CCCC3C)cc1 (racemic) ; wanted: its Tmax
Response line: 30 min

---

Method summary: Apparent clearance in C57BL/6J mouse serum at 20 mg/kg, po by LC-MS/MS analysis
Format: ADME, organism-based
Property: CL/F (mL/min/kg)
Please give a number only; it is taken to be in mL/min/kg.

Prompt line: # input molecule: COc1ccc(-c2nc(N)nc3c2CCCC3C)cc1 (racemic) ; wanted: its CL/F
Response line: 172

---

Method summary: AUClast in C57BL/6J mouse serum at 20 mg/kg, po by LC-MS/MS analysis
Assay type: ADME, organism-based
Design: dose 20 mg/kg, route oral, time 0 - last
Property: AUC(0-t) (ng·h/mL)
Please give a number only; it is taken to be in ng·h/mL.

Prompt line: # input compound: COc1ccc(-c2nc(N)nc3c2CCCC3C)cc1 (racemic) ; wanted: its AUC(0-t)
Response line: 1920

---

Method summary: Tmax in C57BL/6J mouse serum at 20 mg/kg, po by LC-MS/MS analysis
Type: ADME, organism-based
Property: Tmax
Please answer using a numeric value trailed by its unit.

Prompt line: # input molecule: COc1ccc(-c2nc(N)nc3c2CCCC3C)cc1 (racemic) ; wanted: its Tmax
Response line: 15 min

Ref: ChEMBL document CHEMBL4393678
